Numbers sourced from patent US8177962B2.

Provide the recorded Kb value (25° C.) for the entries that follow.
- PROTOCOL TEXT: Base dissociation constant (Kb) calculated from pH meter measurement
- Format: physicochemical
- MEASUREMENT CONTEXT: 25° C., Table 1

# compound "NC1CCCCC1" ; its Kb value (25° C.) = 3.39 × 10^−4

Summary for this compound, "C1COCCN1" : Kb value (25° C.) is 2.09 × 10^−6

Reported Kb value (25° C.) ( "NCCO" ) = 3.15 × 10^−5

// "C[N+](C)(C)CCO.[OH-]" : Kb value (25° C.) value = 3.14 × 10^−3
